Recorded values, source BindingDB's records for patent US11708351.

pIC50: −log10 of the molar value.
property_label: pIC50

I looked up CC(=O)c1nn(CC(=O)N2[C@@H](C(=O)Nc3nc(Br)ccc3C)C[C@@]3(C)C[C@@H]23)c2ccc(-c3cnc(C)nc3)cc12 [US11708351, Compound 279] and its pIC50 for Complement factor D (Homo sapiens) was < 5.00
